subject of test: HumRADA2 (Pyrococcus furiosus, UniProt O74036, D220A/DEL288-314/E219S/I169M/K221M/V202Y/Y201A)
measurement notes: Isothermal titration calorimetry (ITC), direct binding to HumRADA2
conditions used: LLE=pKD−clog P; clog P calculated with Instant JChem (ChemAxon); substituted tryptamine series (Table 2)
assay readout: LLE

Cn1cnc(S(=O)(=O)NCCc2c[nH]c3ccccc23)c1; 1.8
Nc1cccc(S(=O)(=O)NCCc2c[nH]c3ccccc23)c1; 2.4
O=S(=O)(NCCc1c[nH]c2ccccc12)c1ccc(Br)cc1; 0.4
O=S(=O)(NCCc1c[nH]c2ccccc12)c1ccccc1; 1.6
COc1ccc(S(=O)(=O)NCCc2c[nH]c3ccccc23)cc1; 1.2
O=S(=O)(NCCc1c[nH]c2ccccc12)c1cc(Br)c(Cl)s1; 1.5

====

subject of test: HumRADA2 (Pyrococcus furiosus, UniProt O74036, D220A/DEL288-314/E219S/I169M/K221M/V202Y/Y201A)
measurement notes: Isothermal titration calorimetry (ITC), direct binding to HumRADA2
pKd: −log10 of the molar value.
Please map values of pKd to classes as shown: class A: < 4; class B: ≥ 4 and < 5; class C: ≥ 5

O=C(CCc1ccccc1)N[C@@H](Cc1c[nH]c2ccccc12)C(=O)OCCc1ccccc1; class A
Cc1cccc(CCOC(=O)[C@@H](N)Cc2c[nH]c3ccccc23)c1.Cl; class B
O=S(=O)(NCCc1c[nH]c2ccccc12)c1cc(Br)c(Cl)s1; class C
O=S(=O)(NCCc1c[nH]c2ccccc12)c1cc2ccccc2s1; class C
Cl.N[C@@H](Cc1c[nH]c2ccccc12)C(=O)OCCCc1ccccc1; class A
O=C(NC(Cc1c[nH]c2ccccc12)C(=O)OCCc1ccccc1)c1ccccc1 (centres unmarked); class C
COC(=O)C(Cc1c[nH]c2ccccc12)NC(C)=O (centres unmarked); class A
O=S(=O)(NCCc1c[nH]c2ccccc12)c1cccs1; class B
O=S(=O)(NCCc1c[nH]c2ccccc12)c1cc(Br)c(Br)s1; class B
O=C(N[C@@H](Cc1c[nH]c2ccccc12)C(=O)OCCc1ccccc1)c1cccc([N+](=O)[O-])c1; class A
Cl.N[C@@H](Cc1c[nH]c2ccccc12)C(=O)OCCC1CCCCC1; class B
O=S(=O)(NCCc1c[nH]c2ccccc12)c1ccco1; class B
CNC(=O)C(Cc1c[nH]c2ccccc12)NC(C)=O (centres unmarked); class A
COc1ccc(CCOC(=O)[C@@H](N)Cc2c[nH]c3ccccc23)cc1; class A
Cl.N[C@@H](Cc1c[nH]c2ccccc12)C(=O)Oc1ccccc1; class A
N[C@@H](Cc1c[nH]c2ccccc12)C(=O)OCCc1ccc(Br)cc1; class A
O=S(=O)(Cc1ccccc1)NCCc1c[nH]c2ccccc12; class A
O=C(NC(Cc1c[nH]c2ccccc12)C(=O)OCCc1ccccc1)C1CCCCC1 (centres unmarked); class A
O=S(=O)(NCCc1c[nH]c2ccccc12)c1ccccc1Br; class C

====

subject of test: HumRADA2 (Pyrococcus furiosus, UniProt O74036, D220A/DEL288-314/E219S/I169M/K221M/V202Y/Y201A)
measurement notes: Isothermal titration calorimetry (ITC), direct binding to HumRADA2
conditions used: ITC thermodynamic binding profile, Table S1
assay readout: DH

Cl.N[C@@H](Cc1c[nH]c2ccccc12)C(=O)OCCc1ccccc1; -2.7 kcal/mol
O=C(NC(Cc1c[nH]c2ccccc12)C(=O)OCCc1ccccc1)c1ccccc1 (stereo not shown); -3.4 kcal/mol
COC(=O)C(Cc1c[nH]c2ccccc12)NC(C)=O (stereo not shown); -5.1 kcal/mol
CNC(=O)C(N)Cc1c[nH]c2ccccc12 (stereo not shown); -5.1 kcal/mol
O=S(=O)(NCCc1c[nH]c2ccccc12)c1cc(Br)c(Cl)s1; -5.4 kcal/mol
CNC(=O)C(Cc1c[nH]c2ccccc12)NC(C)=O (stereo not shown); -5.8 kcal/mol
COC(=O)[C@@H](N)Cc1c[nH]c2ccccc12; -6.4 kcal/mol
